- Condition Summary: in n-propanol, 303.15 K
Measurement Type: solubility (mole fraction)
Give the figure only, with no unit attached.

Could you tell me which solubility (mole fraction) is on file for CC(C)(C)C(=O)C(Oc1ccc(Cl)cc1)n1ccnc1 (stereo unspecified) ?
0.19

====

- Condition Summary: in n-pentanol, 313.15 K
Measurement Type: solubility (mole fraction)
Give the figure only, with no unit attached.

Could you tell me which solubility (mole fraction) is on file for CC(C)(C)C(=O)C(Oc1ccc(Cl)cc1)n1ccnc1 (stereo unspecified) ?
0.238

====

- Condition Summary: in ethanol, 308.15 K
Measurement Type: solubility (mole fraction)

Could you tell me which solubility (mole fraction) is on file for CC(C)(C)C(=O)C(Oc1ccc(Cl)cc1)n1ccnc1 (stereo unspecified) ?
0.215

====

- Condition Summary: in n-propanol, 308.15 K
Measurement Type: solubility (mole fraction)
Give the figure only, with no unit attached.

Could you tell me which solubility (mole fraction) is on file for CC(C)(C)C(=O)C(Oc1ccc(Cl)cc1)n1ccnc1 (stereo unspecified) ?
0.22

====

- Condition Summary: in n-butanol, 308.15 K
Measurement Type: solubility (mole fraction)
Give the figure only, with no unit attached.

Could you tell me which solubility (mole fraction) is on file for CC(C)(C)C(=O)C(Oc1ccc(Cl)cc1)n1ccnc1 (stereo unspecified) ?
0.209

====

- Condition Summary: in n-propanol, 298.15 K
Measurement Type: solubility (mole fraction)

Could you tell me which solubility (mole fraction) is on file for CC(C)(C)C(=O)C(Oc1ccc(Cl)cc1)n1ccnc1 (stereo unspecified) ?
0.165

====

- Condition Summary: in n-pentanol, 283.15 K
Measurement Type: solubility (mole fraction)

Could you tell me which solubility (mole fraction) is on file for CC(C)(C)C(=O)C(Oc1ccc(Cl)cc1)n1ccnc1 (stereo unspecified) ?
0.0912

====

- Condition Summary: in n-butanol, 278.15 K
Measurement Type: solubility (mole fraction)
Give the figure only, with no unit attached.

Could you tell me which solubility (mole fraction) is on file for CC(C)(C)C(=O)C(Oc1ccc(Cl)cc1)n1ccnc1 (stereo unspecified) ?
0.0804

====

- Condition Summary: in ethanol, 313.15 K
Measurement Type: solubility (mole fraction)
Give the figure only, with no unit attached.

Could you tell me which solubility (mole fraction) is on file for CC(C)(C)C(=O)C(Oc1ccc(Cl)cc1)n1ccnc1 (stereo unspecified) ?
0.249

====

- Condition Summary: in n-pentanol, 303.15 K
Measurement Type: solubility (mole fraction)
Give the figure only, with no unit attached.

Could you tell me which solubility (mole fraction) is on file for CC(C)(C)C(=O)C(Oc1ccc(Cl)cc1)n1ccnc1 (stereo unspecified) ?
0.174

====

- Condition Summary: in ethanol, 288.15 K
Measurement Type: solubility (mole fraction)
Give the figure only, with no unit attached.

Could you tell me which solubility (mole fraction) is on file for CC(C)(C)C(=O)C(Oc1ccc(Cl)cc1)n1ccnc1 (stereo unspecified) ?
0.112

====

- Condition Summary: in n-hexanol, 313.15 K
Measurement Type: solubility (mole fraction)
Give the figure only, with no unit attached.

Could you tell me which solubility (mole fraction) is on file for CC(C)(C)C(=O)C(Oc1ccc(Cl)cc1)n1ccnc1 (stereo unspecified) ?
0.223

====

- Condition Summary: in ethanol, 298.15 K
Measurement Type: solubility (mole fraction)
Give the figure only, with no unit attached.

Could you tell me which solubility (mole fraction) is on file for CC(C)(C)C(=O)C(Oc1ccc(Cl)cc1)n1ccnc1 (stereo unspecified) ?
0.159
